Parameter log10 of IC50, tested on Cholinesterase (Homo sapiens, UniProt P06276), listed per item.
Sequence (P06276 whole entry): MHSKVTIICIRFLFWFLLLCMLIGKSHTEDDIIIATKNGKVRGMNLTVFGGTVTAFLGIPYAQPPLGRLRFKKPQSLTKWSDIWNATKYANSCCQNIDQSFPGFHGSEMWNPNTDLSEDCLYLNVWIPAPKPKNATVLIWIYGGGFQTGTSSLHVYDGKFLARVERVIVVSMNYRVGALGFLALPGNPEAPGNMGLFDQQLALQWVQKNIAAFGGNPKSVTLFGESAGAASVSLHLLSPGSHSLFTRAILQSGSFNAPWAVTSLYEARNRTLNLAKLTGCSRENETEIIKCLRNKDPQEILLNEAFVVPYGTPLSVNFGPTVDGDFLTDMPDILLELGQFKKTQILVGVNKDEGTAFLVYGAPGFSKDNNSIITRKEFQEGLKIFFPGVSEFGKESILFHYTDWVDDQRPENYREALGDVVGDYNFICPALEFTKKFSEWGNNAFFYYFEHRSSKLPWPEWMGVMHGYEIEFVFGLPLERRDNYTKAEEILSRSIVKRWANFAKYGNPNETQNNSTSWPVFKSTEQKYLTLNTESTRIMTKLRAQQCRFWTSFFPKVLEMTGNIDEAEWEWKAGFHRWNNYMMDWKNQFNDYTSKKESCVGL
Heads up, the numbers here are log10 of IC50 in µM units.

Example entries and their recorded answers appear below.
Cc1ccc(C2CC(c3cccc(O)c3)=Nc3ccccc3S2)cc1 (centres undefined) | 1.88
Oc1cccc(C2=Nc3ccccc3SC(c3ccccc3)C2)c1 (centres undefined) | 3.15

Consider now this further compound.
Give log10 of IC50; test system Cholinesterase (Homo sapiens, UniProt P06276); compound COc1ccc(C2CC(c3cccc(O)c3)=Nc3ccccc3S2)cc1OC (centres undefined)
1.29

---

# targetUnderTest: Acetylcholinesterase (Homo sapiens)
# Sequence (P22303 whole entry): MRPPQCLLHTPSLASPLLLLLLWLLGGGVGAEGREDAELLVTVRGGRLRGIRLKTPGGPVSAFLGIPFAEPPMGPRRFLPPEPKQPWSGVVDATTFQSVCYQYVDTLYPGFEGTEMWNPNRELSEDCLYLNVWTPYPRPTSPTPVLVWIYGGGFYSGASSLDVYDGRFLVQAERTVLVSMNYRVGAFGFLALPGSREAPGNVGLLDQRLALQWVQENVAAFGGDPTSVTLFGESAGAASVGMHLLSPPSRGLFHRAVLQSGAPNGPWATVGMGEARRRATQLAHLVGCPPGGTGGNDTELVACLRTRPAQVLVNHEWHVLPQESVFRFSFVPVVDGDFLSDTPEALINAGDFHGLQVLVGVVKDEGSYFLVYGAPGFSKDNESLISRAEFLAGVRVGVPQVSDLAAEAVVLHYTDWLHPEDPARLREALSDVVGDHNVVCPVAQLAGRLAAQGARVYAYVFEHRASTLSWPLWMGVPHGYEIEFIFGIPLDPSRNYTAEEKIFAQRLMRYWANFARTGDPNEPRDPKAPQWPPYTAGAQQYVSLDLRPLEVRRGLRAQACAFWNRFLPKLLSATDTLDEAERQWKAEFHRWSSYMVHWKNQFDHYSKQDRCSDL
readoutType: pIC50
The value called pIC50 is obtained by taking minus log10 of the concentration in mol/L.

Example entries and their recorded answers appear below.
Oc1cccc(C2=Nc3ccccc3SC(c3ccccc3)C2)c1 (stereo unspecified) | 4.40
Oc1cccc(C2=Nc3ccccc3SC(c3cccs3)C2)c1 (stereo unspecified) | 5.23
Cc1ccc(C2CC(c3cccc(O)c3)=Nc3ccccc3S2)cc1 (stereo unspecified) | 4.31

Specify measured pIC50 for Oc1cccc(C2=Nc3ccccc3SC(c3ccc(Cl)cc3)C2)c1 (stereo unspecified) .
4.73

Specify measured pIC50 for Oc1cccc(C2=Nc3ccccc3SC(c3cccc(O)c3)C2)c1 (stereo unspecified) .
4.15

Specify measured pIC50 for Oc1cccc(C2=Nc3ccccc3SC(c3ccccc3F)C2)c1 (stereo unspecified) .
4.15
